# Test system: P. aeruginosa 27853
# MEASUREMENT PROTOCOL: MIC assay, P. aeruginosa 27853
# Format: cell-based
# Set-up: unit not given here
# CONDITION CONTEXT: range: complete growth inhibition at higher, viable cells at lower concentration; 20-24 hours at 37° C.
# MIC P aeruginosa 27853 per record follows

- MOLECULE: "NCC[C@H](O)C(=O)NC1CC(N)C(OC2OC(CN)C(O)C(O)C2O)C(O)C1OC1OC(CNC2CCCCC2)C(O)C(N)C1O (some centres unmarked)"
  MIC P aeruginosa 27853: ">40"
- MOLECULE: "CC(C)CNCC1OC(OC2C(N)CC(NC(=O)[C@@H](O)CCN)C(OC3OC(CO)C(O)C(N)C3O)C2O)C(O)C(O)C1O (some centres unmarked)"
  MIC P aeruginosa 27853: "10-20"
- MOLECULE: "NCC[C@H](O)C(=O)N[C@@H]1C[C@H](N)[C@@H](O[C@H]2O[C@H](CN)[C@@H](O)[C@H](O)[C@H]2O)[C@H](O)[C@H]1O[C@H]1O[C@H](CNCCNCc2ccccc2)[C@@H](O)[C@H](N)[C@H]1O"
  MIC P aeruginosa 27853: "5.0-10.0"
- MOLECULE: "CCCNC[C@H]1O[C@H](O[C@@H]2[C@@H](O)[C@H](O[C@H]3O[C@H](CN)[C@@H](O)[C@H](O)[C@H]3O)[C@@H](N)C[C@H]2NC(=O)[C@@H](O)CCN)[C@H](O)[C@@H](N)[C@@H]1O"
  MIC P aeruginosa 27853: "5.0-10.0"
- MOLECULE: "CN(C)CC1OC(OC2C(N)CC(NC(=O)[C@@H](O)CCN)C(OC3OC(CO)C(O)C(N)C3O)C2O)C(O)C(O)C1O (some centres unmarked)"
  MIC P aeruginosa 27853: "10-20"
